EXPERIMENTAL_SYSTEM: HLA-A2.1 (Homo sapiens, UniProt P04439, D140Y/D185E/D98H/E176V/E277Q/G131W/G231S/I119V/I121R/I166T/I218V/L300P/L318F/N151K/N90K/P208A/P217A/Q86G/Q94H/R138H/R169H/T345S)
Construct: endogenous in cells; host or cells: 174CEM.T2
Assay type: cell-based
RUN_PARAMETERS: HPV16 peptides; 200 μg/ml peptide, 16 hours, 174CEM.T2 cells
Procedure: Of all peptides a dilution of 1 mg/ml in 0.9% NaCl was made. […] 174CEM.T2 cells were washed twice in culture medium without FCS and put in serum-free culture medium to a density of 2×10^6 cells/ml. […] Then cells were washed twice and incubated for 30 minutes with F(ab)2 fragments of goat anti-mouse IgG that had been conjugated with […] (Tago Inc Burlingame, Calif., USA: 4350) in a dilution of 1:40 and a total volume of 25 μl. […]
MEASURED_PROPERTY: MF (mean HLA-A2.1 fluorescence)

ENTRY_SEQUENCE | MF (mean HLA-A2.1 fluorescence)
QLCTELQTT [HPV16 peptide 2, residues 21-29 of HPV16 protein E6] | 211.9
CVYCKQQLL [HPV16 peptide 8, residues 37-45 of HPV16 protein E6] | 195.0

Request: Any idea what MF (mean HLA-A2.1 fluorescence) was measured for YMLDLQPET [HPV16 peptide 12, residues 11-19 of HPV16 protein E7] ?
Response: 283.9

Request: Please give the result for ELQTTIHDI [HPV16 peptide 4, residues 25-33 of HPV16 protein E6] too.
Response: 108.0

The reported numbers originate from patent US7364741B1.
